This listing pairs sequences with measured folding stability dG unfold.
# METHOD: folding stability dG unfold (combined trypsin and chymotrypsin); higher = more stable

// solved cases for folding stability dG unfold follow
1) SAGGSAGGSAGGSMPVEILEVEEADPETGIRTYKLRDPVIGVESTIEGPLSPEEIEALLSAGGSAGGSAGGS [r4_228_JUSTAS] :: < -1 kcal/mol
2) SAGGSTTITVPEEELEKKTGIPLGTPPEEVARKLDPVAKVTVTAVSSEKGPNGEPKRTVTFEVTPPQLSAGG [r13_723_JUSTAS] :: < -1 kcal/mol

Query sequence follows.
(Q) // folding stability dG unfold lookup, key: SDPQQLPPELIDNIAKEFPHIKAIEIQPHPPGMVHVDAEYRDDGKEKRVEFQIPNPNGNTHQFEIEIRKPSA [r9_678_TrROS]
(A) < -1 kcal/mol

----------
This listing pairs sequences with measured folding stability dG unfold.
# METHOD: folding stability dG unfold from trypsin proteolysis; higher = more stable
Please respond with the number in kcal/mol and leave the unit unwritten.

// solved cases for folding stability dG unfold follow
1) SAGGSAGGSAMLVIRVVTEDGEEREIEIPEGEELTLEEILAALRTPDGREVPIERVEIFPASAGGSAGGSAG [r3_465_TrROS_Hall] :: 2.04
2) MRITLEHPDIKRLTIEFRPMPDGYFRMDIKVERPDGKPVPIPFPMRYEDGKMTPEMMEQMIDEAVEEALADS [r1_124_TrROS] :: 0.608
3) SAGSSSMVLLKVTITFTDPNGTTTTLTYTFDDPSNPEKARAAVEALAAEIKAATGASWTITMTTVPVPGSAG [r14_146_JUSTAS] :: 4.59

Query sequence follows.
(Q) // folding stability dG unfold lookup, key: SAGGSAGGSAGKSPSESEVVITPETGVVEENGVKIKVTLTITTYSPSSTVTSTTKDPKLLSAGGSAGGSAGG [r11_551_JUSTAS]
(A) -0.0836

----------
# METHOD: folding stability dG unfold from chymotrypsin proteolysis; higher = more stable
READOUT: folding stability dG unfold (kcal/mol)
Please respond with the number in kcal/mol and leave the unit unwritten.

// solved cases for folding stability dG unfold follow
1. SAGGSVTTETDEYFYPDNLFTVAKTTLYVGSGPVEATAVSYPTFTLVNVHYPDGSVDTFLFTLTDDSSAGGS [r16_108_TrMRF] :: 3.56
2. SAGGSAGGGGMTVTITVPVPSPTATYTVSFPSSSATASFTAEPGGPLTITVNAPSVTSITVTVSSAGGSAGG [r6_808_JUSTAS] :: 3.98
3. SAGGSAGGMKVTTEGNAAGTNTVTVSYPDGSSVTRTLAPDDVVEVPVGGEVVLTVTVTANPDLPSAGGSAGG [r6_583_JUSTAS] :: 0.0101
4. SAGGSAGGSAMKILSVTEEVLPNGTRVVRVTVKLPTPKTREIVVSPEVVEAGRLDEVVEELLSAGGSAGGSA [r18_129_JUSTAS] :: 1.82
5. SAGGSAGGSAGGSYIIVQFPADEIKEALPPGFEIKSIERSPKNGWVMVAIRYPKDGKPISAGGSAGGSAGGS [r4_435_TrROS] :: 0.416

(Q) // folding stability dG unfold lookup, key: SAMVVIPFPKDTPPEVALEAVRKAVREAAENGIVPEKIVVVAHPDLVFLVDSLVEAGIPLENVEFVPSESAG [r14_589_TrMRF]
(A) 2.86

(Q) Same read-out for SAGSITITIETLPDGTIRITIPYTSEEEAKKVAEEVAKEIAEKLGEEVIKFEVTPEDDDTLILTIPIKKSAG [r5_772_JUSTAS] ?
(A) 1.81

(Q) Same read-out for PFRVMVDLERDPEDGWYKVTIMVQAKDGRPITPELIENAAREIFKQGFPIKKIKLEPYPNGYVHFKIEIPLS [r1_408_TrROS] ?
(A) 2.88
